run-parameters: human gut metagenome, 24 h, 2 µM; also: call rule not given here
property-measured: Bacterial Biotransformation

1. COc1cc2nc(N(C)CCCNC(=O)C3CCCO3)nc(N)c2cc1OC (stereo not drawn) [ALFUZOSIN] :: Compound metabolized
2. O=C(O)CCc1nc(-c2ccccc2)c(-c2ccccc2)o1 [OXAPROZIN] :: Compound metabolized
3. CC(C)(C)NC[C@H](O)COc1ccccc1C1CCCC1.CC(C)(C)NC[C@H](O)COc1ccccc1C1CCCC1.O=S(=O)(O)O [PENBUTOLOL SULFATE] :: Compound metabolized
4. CN1C(C(=O)Nc2ccccn2)=C(O)c2sccc2S1(=O)=O [TENOXICAM] :: Compound NOT metabolized
5. Cc1nc(-c2ccc(OCC(C)C)c(C#N)c2)sc1C(=O)O [FEBUXOSTAT] :: Compound metabolized
6. CC(C)c1nc(CN(C)C(=O)N[C@H](C(=O)N[C@@H](Cc2ccccc2)C[C@H](O)[C@H](Cc2ccccc2)NC(=O)OCc2cncs2)C(C)C)cs1 [RITONAVIR] :: Compound metabolized
7. OC(CCN1CCCCC1)(c1ccccc1)C1CCCCC1 (stereo not drawn) [TRIHEXYPHENIDYL] :: Compound metabolized

Task: Consider the compound COc1ccc2c3c1O[C@H]1C[C@@H](O)C=C[C@@]31CCN(C)C2 [GALANTAMINE] . State its measured Bacterial Biotransformation.
Result: Compound NOT metabolized

====

assay-explanation: The drug is tested on Z-003 corresponding to pig gut metagenome with ENA study accession number: PRJEB37062 and ENA sample accession number: ERS12561803 for biotransformation under anaerobic condition. The drug concentrations were measured over 9 timepoints collected between 0 and 24 hours of incubation by liquid-chromatography-coupled mass spectrometry (LC–MS)
run-parameters: 2 µM
property-measured: Bacterial Biotransformation

Worked examples, 6 compounds total:
1. NC(=O)N1c2ccccc2CC(=O)c2ccccc21 [OXCARBAZEPINE] :: Compound metabolized
2. NC(CO)(CO)CO.O=C(c1ccccc1)c1ccc2n1CCC2C(=O)O (stereo not drawn) :: Compound metabolized
3. CN1CCc2c(c3ccccc3n2Cc2ccccc2)C1.CN1CCc2c(c3ccccc3n2Cc2ccccc2)C1.O=S(=O)(O)c1cccc2c(S(=O)(=O)O)cccc12 :: Compound NOT metabolized
4. Cc1ccccc1N1C(=O)c2cc(S(N)(=O)=O)c(Cl)cc2NC1C (stereo not drawn) :: Compound NOT metabolized
5. CN(C)C(=O)C(CCN1CCC(O)(c2ccc(Cl)cc2)CC1)(c1ccccc1)c1ccccc1 [LOPERAMIDE] :: Compound metabolized
6. COC(=O)Nc1nc2ccc(C(=O)c3ccccc3)cc2[nH]1 :: Compound metabolized

Value sought for every listed compound: Bacterial Biotransformation.
1. C#C[C@]1(O)CC[C@H]2[C@@H]3CCC4=Cc5oncc5C[C@]4(C)[C@H]3CC[C@@]21C
2. O=C(CCCN1CCC(O)(c2ccc(Cl)cc2)CC1)c1ccc(F)cc1

Result:
Compound metabolized
Compound metabolized

====

assay-explanation: The drug is tested on Z-028 corresponding to mouse gut metagenome with ENA study accession number: PRJEB37062 and ENA sample accession number: ERS12561827 for biotransformation under anaerobic condition. The drug concentrations were measured over 9 timepoints collected between 0 and 24 hours of incubation by liquid-chromatography-coupled mass spectrometry (LC–MS)
run-parameters: 2 µM
property-measured: Bacterial Biotransformation

Worked examples, 4 compounds total:
1) Cc1ccc(S(=O)(=O)NC(=O)NN2CCCCCC2)cc1 [TOLAZAMIDE] :: Compound metabolized
2) C#C[C@]1(O)CC[C@H]2[C@@H]3CCC4=CC(=O)CC[C@@H]4[C@H]3CC[C@@]21CC :: Compound metabolized
3) CC(O)(CS(=O)(=O)c1ccc(F)cc1)C(=O)Nc1ccc(C#N)c(C(F)(F)F)c1 (stereo unspecified) [BICALUTAMIDE] :: Compound NOT metabolized
4) O=C(O)COCCN1CCN(C(c2ccccc2)c2ccc(Cl)cc2)CC1 (stereo unspecified) :: Compound NOT metabolized

Value sought for every listed compound: Bacterial Biotransformation.
1. Cc1ccccc1N1C(=O)c2cc(S(N)(=O)=O)c(Cl)cc2NC1C (stereo unspecified)
2. COCCc1ccc(OCC(O)CNC(C)C)cc1.COCCc1ccc(OCC(O)CNC(C)C)cc1.O=C(O)C(O)C(O)C(=O)O (stereo unspecified) [METOPROLOL TARTRATE]
3. CC(C)c1nc(CN(C)C(=O)N[C@H](C(=O)N[C@@H](Cc2ccccc2)C[C@H](O)[C@H](Cc2ccccc2)NC(=O)OCc2cncs2)C(C)C)cs1

Result:
1. Compound NOT metabolized
2. Compound NOT metabolized
3. Compound metabolized

Value sought for every listed compound: Bacterial Biotransformation.
1. CCC(COC(=O)c1cc(OC)c(OC)c(OC)c1)(c1ccccc1)N(C)C.O=C(O)/C=C\C(=O)O (stereo unspecified)
2. c1ccc([C@H]2CN3CCSC3=N2)cc1
3. CN/C(=N/CCSCc1nc[nH]c1C)NC#N
4. CCC(=O)NCC[C@@H]1CCc2ccc3c(c21)CCO3
5. CCCCCOC(=O)Nc1nc(=O)n([C@@H]2O[C@H](C)[C@@H](O)[C@H]2O)cc1F

Result:
1: Compound metabolized; 2: Compound metabolized; 3: Compound NOT metabolized; 4: Compound NOT metabolized; 5: Compound metabolized
